Measured values drawn from patent US8415351B2 for this set.

- target.under.test: HCV polymerase 1A (Δ21 NS5B, H77) (Hepatitis C virus genotype 1a)
- Construct: 20 to 50 nM Δ21 NS5B
- Sequence (P27958 2421-2990, stated change not applied): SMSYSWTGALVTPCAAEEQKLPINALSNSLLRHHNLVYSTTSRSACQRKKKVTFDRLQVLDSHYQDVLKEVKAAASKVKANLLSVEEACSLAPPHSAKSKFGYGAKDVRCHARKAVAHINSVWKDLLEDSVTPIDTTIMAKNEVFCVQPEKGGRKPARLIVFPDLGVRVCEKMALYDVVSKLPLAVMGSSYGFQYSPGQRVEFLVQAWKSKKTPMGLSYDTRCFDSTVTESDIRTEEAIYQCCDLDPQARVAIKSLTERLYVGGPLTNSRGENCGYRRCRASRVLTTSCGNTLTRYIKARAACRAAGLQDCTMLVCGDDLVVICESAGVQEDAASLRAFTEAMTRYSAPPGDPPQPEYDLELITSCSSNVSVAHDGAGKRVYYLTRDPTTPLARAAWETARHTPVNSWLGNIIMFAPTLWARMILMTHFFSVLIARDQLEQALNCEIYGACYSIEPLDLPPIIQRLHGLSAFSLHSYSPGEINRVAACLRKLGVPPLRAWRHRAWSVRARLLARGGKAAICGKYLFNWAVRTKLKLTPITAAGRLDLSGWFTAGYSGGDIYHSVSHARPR
- measurement.notes: biochemical
- condition: IC50 1a
Task for the reader: assign each of the following compounds its reported IC50.

1) CC1CN(Cc2cc(N3CCC(=O)NC3=O)cc(C(C)(C)C)c2O)CC(C)O1 (stereo not drawn) [IA-L5-1-1.13, 2,2,2-trifluoroacetate]    > 1000 nM

Parameter requested: IC50. Apply to each item below.
1. COc1c(-c2ccc3c(c2)CCC3=O)cc(-n2ccc(=O)[nH]c2=O)cc1C(C)(C)C
2. COc1c(C(=O)Nc2ccc(N(S(C)(=O)=O)S(C)(=O)=O)cn2)cc(N2CCC(=O)NC2=O)cc1C(C)(C)C
3. COc1c(Cc2cn(C)c3ccccc23)cc(N2CCC(=O)NC2=O)cc1C(C)(C)C
4. COc1c(C(=O)Nc2ccc(O)cc2)cc(N2CCC(=O)NC2=O)cc1C(C)(C)C
5. COc1c(C#Cc2ccc(NS(C)(=O)=O)cn2)cc(-n2ccc(=O)[nH]c2=O)cc1C(C)(C)C
6. COc1c(C#Cc2cc(F)c(NS(C)(=O)=O)cc2C)cc(N2CCC(=O)NC2=O)cc1C(C)(C)C
7. COC(=O)c1cc(NS(C)(=O)=O)ccc1C#Cc1cc(-n2ccc(=O)[nH]c2=O)cc(C(C)(C)C)c1OC

Result block:
["10 to 100 nM", "> 1000 nM", "> 1000 nM", "> 1000 nM", "< 10 nM", "< 10 nM", "< 10 nM"]

# return IC50 for each item in the list
1. Cc1cc(=O)[nH]c(=O)n1-c1cc(C(=O)Nc2ccc(NS(C)(=O)=O)cc2)c(O)c(C(C)(C)C)c1
2. CNS(=O)(=O)Cc1ccc(NC(=O)c2cc(N3CCC(=O)NC3=O)cc(C(C)(C)C)c2OC)cc1

Result block:
1: 100 to 1000 nM; 2: > 1000 nM

Working through the 7 compounds below one at a time, give IC50 for each.
1. CCc1cc(NS(C)(=O)=O)ccc1C#Cc1cc(N2CCC(=O)NC2=O)cc(C(C)(C)C)c1OC
2. COc1c(NC(=O)c2ccc(CS(C)(=O)=O)cc2)cc(N2CCC(=O)NC2=O)cc1C(C)(C)C
3. COc1c(C(=O)Nc2ccccc2)cc(N2CCC(=O)NC2=O)cc1C(C)(C)C
4. COc1c(-c2ccc(/C(C)=N/NS(C)(=O)=O)cc2)cc(N2CCC(=O)NC2=O)cc1C(C)(C)C
5. COc1c(C(=O)Nc2ccc(NC(=O)COC(C)=O)cc2)cc(N2CCC(=O)NC2=O)cc1C(C)(C)C
6. CC(C)(C)c1cc(NC(=O)c2ccc(NS(C)(=O)=O)cc2)cc(N2CCC(=O)NC2=O)c1
7. COc1c(C#Cc2ccc(NS(C)(=O)=O)c(C)c2)cc(N2CCC(=O)NC2=O)cc1C(C)(C)C

Result block:
1: < 10 nM; 2: > 1000 nM; 3: 100 to 1000 nM; 4: 10 to 100 nM; 5: > 1000 nM; 6: 100 to 1000 nM; 7: 10 to 100 nM

The following compounds each have a reported value; give each one's IC50.
1. COc1c(-c2ccc3c(c2)CCC3C(C)(C)NS(C)(=O)=O)cc(-n2ccc(=O)[nH]c2=O)cc1C(C)(C)C (stereo not drawn)
2. CC(C)(C)c1cc(N2CCC(=O)NC2=O)cc(C(=O)Nc2ccc(OS(C)(=O)=O)cc2)c1O
3. CN(Cc1csc(NC(=O)c2cc(N3CCC(=O)NC3=O)cc(C(C)(C)C)c2O)c1)S(C)(=O)=O
4. COc1cc(NS(C)(=O)=O)ccc1C#Cc1cc(N2CCC(=O)NC2=O)cc(C(C)(C)C)c1OC
5. COc1c(-c2ccc(/C=N/NS(C)(=O)=O)c(F)c2F)cc(N2CCC(=O)NC2=O)cc1C(C)(C)C

Result block:
10 to 100 nM
100 to 1000 nM
100 to 1000 nM
< 10 nM
10 to 100 nM

Would you mind listing IC50 for each of the following compounds?
1. COc1c(C(=O)Nc2ccc(C(C)=O)cc2)cc(N2CCC(=O)NC2=O)cc1C(C)(C)C
2. COc1c(C#Cc2ccc(NS(C)(=O)=O)c(F)c2)cc(N2CCC(=O)NC2=O)cc1C(C)(C)C
3. COc1c(-c2cccc(/C(C)=N/NS(C)(=O)=O)c2)cc(-n2ccc(=O)[nH]c2=O)cc1C(C)(C)C
4. COc1c(C#Cc2ccc(NS(C)(=O)=O)c3ccccc23)cc(N2CCC(=O)NC2=O)cc1C(C)(C)C
5. COc1c(C#Cc2cc(F)c(NS(C)(=O)=O)c(F)c2)cc(-n2ccc(=O)[nH]c2=O)cc1C(C)(C)C

Result block:
1. > 1000 nM
2. < 10 nM
3. 100 to 1000 nM
4. 10 to 100 nM
5. 10 to 100 nM

Look up IC50 for the entries below, preserving their order.
1. COc1c(-c2ccc(/C=N/NS(C)(=O)=O)c(F)c2)cc(-n2ccc(=O)[nH]c2=O)cc1C(C)(C)C
2. COc1c(C#Cc2ccc(NS(C)(=O)=O)cc2Cl)cc(N2CCC(=O)NC2=O)cc1C(C)(C)C
3. COc1c(C(=O)Nc2ccc(NS(C)(=O)=O)cc2)cc(-n2c(C)cc(=O)[nH]c2=O)cc1C(C)(C)C

Result block:
1. 10 to 100 nM
2. < 10 nM
3. 100 to 1000 nM

* * *

Can you tell me EC50 for the items I'm about to list?
- Test system: genotype 1a-H77 subgenomic replicon cell line
- measurement.notes: microbe, parasite or virus in culture
- Type: cell-based, HCV
- condition: Hepatitis C virus, read-out: EC50 1a

Would you mind listing EC50 for each of the following molecules?
1. Cc1cc(=O)[nH]c(=O)n1-c1cc(C(=O)Nc2ccc(NS(C)(=O)=O)cc2)c(O)c(C(C)(C)C)c1 [IB-L3-1.4]
2. COc1c(-c2ccc3cc(NS(C)(=O)=O)ccc3c2)cc(N2CCC(=O)NC2=O)cc1C(C)(C)C [IA-L0-2.9]

Result block:
1. > 1000 nM
2. < 10 nM

// for each molecule in input: emit EC50
1. CCOc1c(-c2ccc3cc(NS(C)(=O)=O)ccc3c2)cc(-n2ccc(=O)[nH]c2=O)cc1C(C)(C)C [IB-L0-2.23]
2. COc1c(-c2ccc(/C(C)=N/NS(C)(=O)=O)cc2)cc(-n2ccc(=O)[nH]c2=O)cc1C(C)(C)C [IB-L0-1.5]
3. COc1c(C(=O)Nc2ccc(NS(C)(=O)=O)cc2)cc(-n2ccc(=O)[nH]c2=O)cc1C(C)(C)C [IB-L3-1.1]
4. COc1c(C#Cc2ncc(NS(C)(=O)=O)cc2C)cc(N2CCC(=O)NC2=O)cc1C(C)(C)C [IA-L2-1.24]
5. CCC(=O)N(c1ccc(NC(=O)c2cc(N3CCC(=O)NC3=O)cc(C(C)(C)C)c2OC)cc1)S(C)(=O)=O [IA-L3-1.70]

Result block:
["100 to 1000 nM", "10 to 100 nM", "100 to 1000 nM", "100 to 1000 nM", "100 to 1000 nM"]

* * *

I'd appreciate it if you could supply pEC50 values for the items below.
- Test system: genotype 1a-H77 subgenomic replicon cell line
- measurement.notes: microbe, parasite or virus in culture
- Assay type: cell-based, HCV
- condition: Hepatitis C virus, read-out: EC50 1a
pEC50: −log10 of the molar value.

1) COc1c(CCc2ccc(NS(C)(=O)=O)cc2)cc(-n2ccc(=O)[nH]c2=O)cc1C(C)(C)C    6.00 to 7.00
2) COc1c(C#Cc2ccc(NS(C)(=O)=O)c(F)c2)cc(N2CCC(=O)NC2=O)cc1C(C)(C)C    6.00 to 7.00
3) COc1c(-c2ccc3ncsc3c2)cc(-n2ccc(=O)[nH]c2=O)cc1C(C)(C)C    6.00 to 7.00
4) COc1c(C#Cc2ccc(NS(C)(=O)=O)cc2)cc(N2CCC(=O)NC2=O)cc1C(C)(C)C    7.00 to 8.00
5) CC(C)(C)c1cc(N2CCC(=O)NC2=O)cc(C(=O)Nc2ccc3c(c2)CS(=O)(=O)C3)c1O    < 6.00
6) COc1c(/C=C(\C)c2ccc([N+](=O)[O-])cc2)cc(N2CCC(=O)NC2=O)cc1C(C)(C)C    < 6.00

Need pEC50 for each of these compounds.
1. CC(C)(C)c1cc(N2CCC(=O)NC2=O)cc(C(=O)Nc2ccc(CC(=O)O)cc2)c1O
2. COc1c(-c2ccc3c(c2)CCC3C(=O)NS(C)(=O)=O)cc(-n2ccc(=O)[nH]c2=O)cc1C(C)(C)C (stereo not drawn)
3. COc1c(C#Cc2cc(F)c(NS(C)(=O)=O)cc2C(F)(F)F)cc(-n2ccc(=O)[nH]c2=O)cc1C(C)(C)C

Result block:
1. < 6.00
2. < 6.00
3. 6.00 to 7.00
